measured on: human GCG receptor (human, UniProt P47871 26-477)
Sequence (P47871 26-477): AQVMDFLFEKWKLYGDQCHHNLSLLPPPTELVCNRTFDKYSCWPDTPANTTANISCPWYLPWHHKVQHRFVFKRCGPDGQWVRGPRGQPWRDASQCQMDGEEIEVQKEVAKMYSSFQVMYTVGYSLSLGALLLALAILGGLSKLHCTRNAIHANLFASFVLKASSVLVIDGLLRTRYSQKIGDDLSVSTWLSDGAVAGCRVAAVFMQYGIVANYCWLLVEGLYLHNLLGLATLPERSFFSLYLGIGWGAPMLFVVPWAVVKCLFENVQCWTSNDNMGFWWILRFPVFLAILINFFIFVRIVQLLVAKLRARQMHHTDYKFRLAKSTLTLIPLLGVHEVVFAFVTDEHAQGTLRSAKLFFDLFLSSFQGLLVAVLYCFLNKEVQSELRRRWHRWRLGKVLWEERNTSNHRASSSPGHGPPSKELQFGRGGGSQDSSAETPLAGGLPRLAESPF
protocol: cell-based or functional assay
Bridges are numbered along the chain shown (N, C = ends). Where no end group is shown, it is not given here. [ ]: non-standard residue; d: D form. The star is where a group is joined. Acetyl(2-(4-imidazolyl)) = O=C(Cc1c[nH]cn1)*; Aib = CC(C)(N)C(=O)O
Could you please report measured in vitro Activity Compared to Native Peptide (%), vs Glucagon for the items listed next?

Note to self: in vitro Activity Compared to Native Peptide (%), vs Glucagon recorded for Y[Aib]QGTFTSDYSKYLDECRAKEFVQWLLDHHPSSGQPPPS-NH2 (bridge 16-20; also: ring type not given here) [triple agonist of SEQ ID NO: 21] was 267%

Note to self: in vitro Activity Compared to Native Peptide (%), vs Glucagon recorded for HGQGTFTSDCSKYLDGQRAQEFVAWLLAGGPSSGAPPPS (not fully specified (C-terminus)) [triple agonist of SEQ ID NO: 47] was < 0.1%

Note to self: in vitro Activity Compared to Native Peptide (%), vs Glucagon recorded for Y[Aib]QGTFTSDYSKYLDEKRAKEFVQWLLCHHPSSGQPPPS (bridge 16-20; not fully specified (C-terminus)) [triple agonist of SEQ ID NO: 95] was 0.4%

Note to self: in vitro Activity Compared to Native Peptide (%), vs Glucagon recorded for [Acetyl(2-(4-imidazolyl))][Aib]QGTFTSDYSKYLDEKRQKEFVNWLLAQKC (bridge 16-20; not fully specified (C-terminus)) [triple agonist of SEQ ID NO: 93] was 0.3%

Note to self: in vitro Activity Compared to Native Peptide (%), vs Glucagon recorded for [Acetyl(2-(4-imidazolyl))][Aib]EGTFTSDYSIAMDEIHQKDFVDWLLAEC (bridge 16-20; not fully specified (C-terminus)) [triple agonist of SEQ ID NO: 84] was < 0.1%
